All values here come from paper PMC6273235.

Test system: T. b. brucei strain 427 (bloodstream forms)
Assay: Anti-trypanosomal activity on T. brucei (resazurin growth inhibition, 3 days)
Type: cell-based, Trypanosoma brucei
Details: Trypanosoma brucei, -log IC50 [M], experimental; read-out: pIC50 Tbr(exp) (converted)

MOLECULE	TESTED SYSTEM	IC50, M
O=C1c2ccc(O)cc2OC[C@H]1Cc1ccc(O)c(O)c1	T. b. brucei strain 427 (bloodstream forms)	5.79e-06
CC(C)=CCc1c(O)c(CC=C(C)C)c2occ(-c3ccc(O)c(O)c3)c(=O)c2c1O	T. b. brucei strain 427 (bloodstream forms)	5.2e-07
C=C[C@H](OC(C)=O)c1ccc(OC(C)=O)cc1 [Compound 11, 1′S-1′-acetoxychavicol acetate]	T. b. brucei strain 427 (bloodstream forms)	4.7e-06
C=C(C)[C@H](CC=C(C)C)Cc1c(O)cc(O)c2c1O[C@H](c1ccc(O)cc1O)CC2=O	T. b. brucei strain 427 (bloodstream forms)	1.37e-06
O=c1c(-c2ccc(O)cc2)coc2cc(O[C@@H]3O[C@H](CO)[C@@H](O)[C@H](O)[C@H]3O)cc(O)c12	T. b. brucei strain 427 (bloodstream forms)	3.31e-06
COc1cc(O)ccc1C(=O)/C=C/c1ccc(O)cc1	T. b. brucei strain 427 (bloodstream forms)	1.04e-05
CC(C)=CCC/C(C)=C/Cc1c(O)ccc(C(=O)/C=C/c2ccc(O)cc2)c1O	T. b. brucei strain 427 (bloodstream forms)	7.41e-06

====

Assay: Cytotoxicity assay (resazurin, 3 days), HEK293T
Type: cell-based, human
Details: human

MOLECULE	CC50 at 3 days
CC(C)=CCc1c(-c2ccc(O)cc2O)oc2c3c(cc(O)c2c1=O)OC(C)(C)C=C3 [Compound 18, morusin]	> 23.7 µM
C=CCc1ccc(Oc2cc(/C=C/C=O)cc(O)c2O)cc1 [Compound 9, obovatal]	> 33.8 µM
COc1cc(CC/C=C/C(=O)CCc2ccccc2)ccc1O [Compound 7]	> 32.4 µM
COc1ccc([C@H](O)[C@@H](C)Oc2ccc([C@H]3O[C@H](c4ccc5c(c4)OCO5)[C@H](C)[C@H]3C)cc2OC)cc1OC [Compound 12, saucerneol D]	> 16.2 µM
CC(C)=CCC/C(C)=C/Cc1c(O)ccc(C(=O)/C=C/c2ccc(O)cc2)c1O [Compound 6, xanthoangelol]	> 25.4 µM
CC(C)=CCc1c(O)c(CC=C(C)C)c2occ(-c3ccc(O)c(O)c3)c(=O)c2c1O [Compound 20, 6,8-diprenylorobol]	> 24.1 µM
COc1cc(C=CC=O)ccc1O [Compound 8, 4-hydroxy-3-methoxycinnamaldehyde]	> 48.1 µM

====

Tested on: T. b. brucei strain 427 (bloodstream forms)
Assay: Anti-trypanosomal activity on T. brucei (resazurin growth inhibition, 3 days)
Format: cell-based, Trypanosoma brucei
Details: Trypanosoma brucei, 72 h, T. b. brucei strain 427 bloodstream forms, 3 days, mean ± SD; read-out: T. brucei IC50
pIC50: −log10 of the molar value.

COMPOUND	RELATION QUALIFIER	pIC50
CC(C)=CCC/C(C)=C/Cc1c(O)ccc(C(=O)/C=C/c2ccc(O)cc2)c1O	=	5.13
C=CCc1ccc(Oc2cc(/C=C/C=O)cc(O)c2O)cc1	=	5.00
O=c1c(-c2ccc(O[C@@H]3O[C@H](CO)[C@@H](O)[C@H](O)[C@H]3O)cc2)coc2cc(O)cc(O)c12 [Compound 22, sophoricoside]	=	5.19
O=c1cc(-c2ccc(O)cc2)oc2cc(O)cc(O)c12	<	5.00
O=C1c2ccc(O)cc2OC[C@H]1Cc1ccc(O)c(O)c1	=	5.24
C=CCc1ccc(O)c(-c2ccc(O)c(CC=C)c2)c1	=	5.06
